- study.target: T1, human thrombin receptor (human, UniProt P25116 42-425)
- T1 chain: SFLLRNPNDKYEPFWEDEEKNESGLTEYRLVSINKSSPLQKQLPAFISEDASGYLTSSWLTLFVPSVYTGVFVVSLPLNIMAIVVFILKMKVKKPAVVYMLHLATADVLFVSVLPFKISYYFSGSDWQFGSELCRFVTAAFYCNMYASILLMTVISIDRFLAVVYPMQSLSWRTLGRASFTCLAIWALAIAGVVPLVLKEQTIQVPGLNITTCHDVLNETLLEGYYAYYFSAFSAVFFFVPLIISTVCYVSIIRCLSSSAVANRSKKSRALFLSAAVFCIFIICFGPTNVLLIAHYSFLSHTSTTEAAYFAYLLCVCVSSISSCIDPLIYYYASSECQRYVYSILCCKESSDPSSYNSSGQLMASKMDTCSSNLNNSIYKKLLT
- assay: cell-based or functional assay
Numbered stars: 1 amine (or outer) side, 2 acyl side, 3 side chain; on linkers, the order of the positions; unused ones are H or OH. Square brackets hold non-standard residues; d marks the D form. Ends that are not written are not given here. SMeCys = S-methylcysteine, CSC[C@H](N[*:1])C(=O)[*:2]
observable: EC50 (concentration required to elicit a 50% maximal aggregation), platelet aggregation (µM)
Unit µM implied. Number only.

Could you share which EC50 (concentration required to elicit a 50% maximal aggregation), platelet aggregation value was measured for AFLLRNPNDKYE ?
12.9

Could you share which EC50 (concentration required to elicit a 50% maximal aggregation), platelet aggregation value was measured for SFFLR-NH2 [SFFLR-NH2] ?
3.4

Could you share which EC50 (concentration required to elicit a 50% maximal aggregation), platelet aggregation value was measured for SXLLR (Cha at position 2; C-terminal amide (NH2)) [S(Cha)LLR-NH2] ?
140

Could you share which EC50 (concentration required to elicit a 50% maximal aggregation), platelet aggregation value was measured for SFLIRN-NH2 [SFLIRN-NH2] ?
20.5

Could you share which EC50 (concentration required to elicit a 50% maximal aggregation), platelet aggregation value was measured for [SMeCys]FLLRN-NH2 (N-terminus assumed; SMILES CSC[C@H](N)C(=O)N[C@@H](Cc1ccccc1)C(=O)N[C@@H](CC(C)C)C(=O)N[C@@H](CC(C)C)C(=O)N[C@@H](CCCNC(=N)N)C(=O)N[C@@H](CC(N)=O)C(N)=O) [(S-MeCys)FLLRN-NH2] ?
129
